protocol_description: P. falciparum blood-stage growth inhibition, late-stage follow-up, M18AAP inhibitor project, cell-based, radiolabel, 3D7, RBCs, Set2 (AID 720736)
measurement_parameters: P. falciparum 3D7 in RBCs, 3H-hypoxanthine incorporation, 48 h; run 1; at 10 µM
Activity calls are given as the source filed them.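 Rule for the calls: active = growth inhibition of at least 50% in any replicate; inactive = growth inhibition below 50% in every replicate.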
Allowed answers: active, inactive

Previously resolved entries follow.
[
  {
    "compound": "Cc1cccc2c(N(C)CCc3ccc(O)c(O)c3)ccnc12",
    "assigned_label": "inactive"
  },
  {
    "compound": "COc1ccc(CCNc2cccc3ccccc23)cc1OC",
    "assigned_label": "inactive"
  },
  {
    "compound": "COc1ccc(CCN2CCN(C)CC2)cc1OC",
    "assigned_label": "inactive"
  },
  {
    "compound": "COc1ccc(C2CCN(c3ccnc4ccccc34)C2)cc1OC (configuration not stated)",
    "assigned_label": "active"
  },
  {
    "compound": "Oc1ccc(C2CCCN(c3ccnc4ccccc34)C2)cc1O (configuration not stated)",
    "assigned_label": "active"
  },
  {
    "compound": "Oc1ccc(CCNc2ccnc3cc(Cl)ccc23)cc1O",
    "assigned_label": "active"
  }
]

# input for lookup
Which outcome did this test record for the compound Cc1c(OCc2ccccc2)c(=O)ccn1CCNc1c2ccccc2nc2ccccc12 ? active
